test system: OVCAR-4 ovarian; assay: NCI-60 one-dose screen, 48 h; conditions: 10 µM unless noted
This is part of a sample that, as a whole, favours compounds with a hit. Of some 83,000 tested, about 20% had one in any assay. Activity calls are given as the source filed them. Rule for the calls: active = growth percent below 10; inactive = the rest.
Your answer must be one of the following: active, inactive

Exercise: Fill in: this test's call for Oc1c(Cl)cc(Cl)c2ccc(Cn3cc(-c4cc(F)cc(F)c4)nn3)nc12 is ___
Solution: inactive

Exercise: Same read-out for CC1(c2ccccc2O)NN=C(/N=C/c2cccc([N+](=O)[O-])c2)N1C(Cc1c[nH]c2ccccc12)C(=O)O (centres undefined) ?
Solution: inactive

Exercise: Further, for CNC(=O)c1cc(Oc2ccc3c(c2)sc2nc(-c4cc(OC)c(OC)c(OC)c4)cn23)ccn1 ?
Solution: inactive

Exercise: Same lookup for CNc1nc(S(=O)c2ccc(C#N)cc2)nc2ccccc12 (centres undefined) , please.
Solution: inactive

Exercise: Quick one: CN(C)c1ccc(Nc2cc(-c3cccc(OC(F)(F)F)c3)nc3ccc(N4CCCC4)cc23)cc1
Solution: active

Exercise: Another compound to look at: CCn1c(=S)sc2c(Nc3ccc(F)cc3)nc(-c3cccnc3)nc21
Solution: active

Exercise: Ok, now O=C(O)CCCN1C(=O)/C(=C/C(Cl)=C/c2ccccc2)SC1=S
Solution: inactive

Exercise: // same read-out, input: CCOC(=O)c1cc(C(=O)c2cc(OC)c(OC)c(OC)c2)n2ccc(-c3ccncc3)cc12
Solution: inactive

Exercise: Next entry: O=C1COCCN1c1ccc(Nc2nc(Cl)nc(OCc3cn(Cc4ccccc4)nn3)n2)cc1
Solution: inactive

----------
test system: MDA-MB-435 melanoma; assay: NCI-60 one-dose screen, 48 h; settings: 10 µM unless noted
The panel holds about 83,000 compounds, 20% with a hit somewhere; the sample as a whole holds those more often. The source made the active and inactive calls. Rule for the calls: active = growth percent below 10; inactive = the rest.
A correct response names exactly one class from active, inactive

Exercise: Please share the test call associated with COc1ccc(-c2nc3c(c(-c4ccccc4)nn3-c3ccccc3)c(-c3ccc(N4CCOCC4)cc3)c2C#N)cc1 .
Solution: inactive

Exercise: What about COc1ccc(C(=O)Nc2ncc(Cc3ccc(F)cc3)s2)cc1 ?
Solution: active

Exercise: Moving on to the next compound: Cc1ccc(Sc2nnc(/N=C3\C(=O)Nc4ccccc43)s2)cc1
Solution: inactive

Exercise: Another compound to look at: CCN(CC)C(=S)SC(SC(=S)N(CC)CC)C(=O)c1nnn(-c2ccc([N+](=O)[O-])cc2)c1C
Solution: inactive

Exercise: Now try COc1cccc([C@H]2c3[nH]c4ccccc4c3C[C@H]3C(=O)N(CCCCCCC(=O)NO)CC(=O)N23)c1 .
Solution: inactive

Exercise: Next up: CCCc1cc(NC)nc(S(=O)(=O)CC)n1
Solution: inactive

Exercise: # iterate: C=C1C(=O)O[C@H]2[C@H]1CC/C(COC(=O)NCc1cc[nH]c1)=C\CC[C@@]1(C)O[C@@H]21
Solution: inactive

Exercise: Field entry: Oc1c(Cl)cc(Cl)c2ccc(Cn3cc(-c4cc(F)cc(F)c4)nn3)nc12
Solution: inactive

Exercise: Another compound to look at: O=C(/C=C(/C=C/c1cccc2[nH]ccc12)OB(F)F)/C=C/c1cccc2[nH]ccc12
Solution: active

----------
system: MDA-MB-231 breast; assay: NCI-60 one-dose screen, 48 h (100 = growth as untreated, 0 = no growth, -100 = all killed); conditions: 10 µM unless noted
Compounds without any hit were thinned out: in the full panel of roughly 83,000, 20% have a hit.
Rule: measured growth below 80% gets T; anything equal to or greater than 80% gets F.

Exercise: Record CC(C)n1cnc2c(=S)nc[nH]c21 : is its growth strictly below 80%?
Solution: F

Exercise: Item: C=C(C)[C@@H]1CC[C@]2(C(=O)NCCNCCN)CC[C@]3(C)[C@H](CC[C@@H]4[C@@]5(C)C/C(=C/c6ccncc6)C(=O)C(C)(C)[C@@H]5CC[C@]43C)[C@@H]12
Solution: F

Exercise: Same thing, different molecule: CC(C)c1ccc(NC(=O)Nc2ccc(NC(=O)CCCC(=O)NOCc3ccccc3)cc2)cc1
Solution: F

Exercise: How about this molecule: CC(O)c1cnc(/C=C2\SC(=S)N(Cc3ccccc3)C2=O)s1 (centres undefined)
Solution: F

Exercise: Next up: Cc1ccccc1/C=C1\CN(C(=O)OC(C)(C)C)C/C(=C\c2ccccc2C)C1=O
Solution: T

Exercise: And what about the molecule Cn1cccc1C(=O)C1C(c2cccc([N+](=O)[O-])c2)C2C3CCCCC3CN2C12C(=O)Nc1ccc(Cl)cc12 (centres undefined) ?
Solution: T

Exercise: Let us now turn to CCCCC(=O)Nc1ncc(Cc2ccc(Cl)cc2)s1
Solution: T

Exercise: Would you mind doing C=C1C(=O)O[C@H]2[C@H]1CC/C(COC(=O)NCc1cc[nH]c1)=C\CC[C@@]1(C)O[C@@H]21 as well?
Solution: T

----------
tested on: SNB-75 CNS; assay: NCI-60 one-dose screen, 48 h (100 = growth as untreated, 0 = no growth, -100 = all killed); settings: 10 µM unless noted
The panel holds about 83,000 compounds, 20% with a hit somewhere; the sample as a whole holds those more often. Activity calls are given as the source filed them. The calls were made as follows: active = growth percent below 10; inactive = the rest.
measured.attribute: growth

Exercise: Item O=C(Nc1cccnc1Nc1ccc(F)cc1)c1cn(Cc2cccc(Oc3ccccc3)c2)nn1 has what recorded growth?
Solution: 65.6% (inactive)

Exercise: Now the compound CCN(CC)CCSc1nc(-c2ccccc2)c(C#N)c(=O)[nH]1
Solution: 129% (inactive)

Exercise: Try this compound too: O=C1Nc2ccccc2/C1=C\c1nc(-c2ccccc2)n2ccccc12
Solution: 79.6% (inactive)

Exercise: # repeat for COc1cc2oc(-c3cccc(NC(=O)c4cccc(Br)c4)c3)cc(=O)c2c(OC)c1OC
Solution: 62.6% (inactive)

Exercise: Ok, now Fc1cc(F)cc(C(c2c[nH]c3ccccc23)c2c[nH]c3ccccc23)c1
Solution: 106% (inactive)

Exercise: Same again, this time with Cn1c(O)c(C=NCCN=Cc2c(O)n(C)c(=O)n(C)c2=O)c(=O)n(C)c1=O
Solution: 88.3% (inactive)

Exercise: Also need CNC(=O)c1cc(Oc2ccc3c(c2)sc2nc(-c4cc(OC)c(OC)c(OC)c4)cn23)ccn1 , thanks.
Solution: 50.3% (inactive)

Exercise: Ok, now COc1ccc(N2CCC(=O)NC2=S)cc1
Solution: 96.6% (inactive)

Exercise: Likewise for O=CC1(C2(C=O)c3ccccc3-c3ccccc32)c2ccccc2-c2ccccc21 ?
Solution: -79.2% (active)

Exercise: What about this compound? CC(C)(C)n1cc(-c2ccnc(NCCNS(=O)(=O)c3cccc4ccccc34)c2)c(-c2cccc(F)c2)n1
Solution: -17.6% (active)

----------
System: SN12C renal
Test: NCI-60 one-dose screen, 48 h
Details: 10 µM unless noted
Method: Growth inhibition of the SN12C human tumor cell line is measured as a screen for anti-cancer activity. Cells are grown in 96 well plates and exposed to the test compound for 48 hours. Compounds are tested at a single concentration, which is 10^-5 M for most compounds. The reported endpoint is percent growth (GI% or GIPRCNT), where numbers from 0 - 100% represent growth inhibition, and numbers from -100% - 0 represent cell death. For example, a value of 40 represents 60% growth inhibition. […]
About 83,000 compounds went through this panel and 20% of them were active in at least one assay; those are over-represented in the sample as a whole. Calls of active or inactive are those of the source. Rule for the calls: active = growth percent below 10; inactive = the rest.
// one of TRUE = active, FALSE = inactive, no free text

Exercise: Which outcome was entered for the compound COC(=O)c1cc(-c2ccccc2)[nH]c1N/N=C/c1c(Cl)cccc1Cl in this test?
Solution: FALSE

Exercise: Next entry: CCn1c(=S)sc2c(Nc3ccc(F)cc3)nc(-c3cccnc3)nc21
Solution: FALSE

Exercise: Same question for O=C(CCCCC1CCSS1)Nc1ncnc2n[nH]c(-c3ccc(Oc4ccccc4)cc3)c12 (stereo not given) please.
Solution: FALSE

Exercise: Same lookup for O=C(CI)NC1Oc2ccccc2-c2oc(=O)c(-c3ccccc3)cc21 (stereo not given) , please.
Solution: TRUE

Exercise: Record: COc1ccc(C(=O)C2C(c3ccc(OC)cc3)CN(C)C23C(=O)Nc2ccccc23)cc1 (stereo not given)
Solution: FALSE

Exercise: Note, next up: Cc1ccccc1Cn1cnc2ccc(-c3cc(NC(=O)c4ccc(NC5CCN(C)CC5)cc4)n[nH]3)cc21
Solution: FALSE

Exercise: Follow-up entry: CCCCC[C@@H]1Cc2cc(O)c(C(=O)O)c3c2[C@H](C[C@]2(OC[C@@H](CC(=O)[C@@](C)(CC)C(=O)OC)[C@@H]2C)O3)O1
Solution: FALSE

Exercise: And what about the compound O=[N+]([O-])c1ccc(-c2nc(N3CCOCC3)c3c4c(sc3n2)CCCC4)cc1 ?
Solution: FALSE

Exercise: Next entry: O=C(Cn1c2c(c3ccccc31)CCCC2)Nc1ccc(-c2nc3ccccc3s2)cc1
Solution: FALSE

Exercise: What about this compound? COC(=O)c1cc(-c2ccc(OC)cc2)[nH]c1N/N=C/c1c(Cl)cccc1Cl
Solution: FALSE

Exercise: Here is the next compound: Cc1cc(=O)[nH]c2c(C#N)cnn12
Solution: FALSE

Exercise: Next: O=C1COCCN1c1ccc(Nc2nc(Cl)nc(OCc3cn(Cc4ccccc4)nn3)n2)cc1
Solution: FALSE

Exercise: What about O=C(Nn1c2c(sc1=Nc1ccccc1)C(=O)c1ccccc1C2=O)c1cc2ccc1CCc1ccc(cc1)CC2 ?
Solution: FALSE

Exercise: Note, next up: C=C1CC[C@@H]2[C@](C)(COC(C)=O)[C@H](OC(C)=O)CC[C@@]2(C)[C@@H]1CC(Sc1ccccc1)C1=CCOC1=O (stereo not given in full)
Solution: TRUE

Exercise: Note, next up: COc1cc(CNC(=O)/C=C/C=C/c2ccc3c(c2)OCO3)ccc1OCc1cn(-c2ccc(C)c(C)c2)nn1
Solution: FALSE

Exercise: And what about the compound COc1ccc2[nH]cc(-c3nc(-c4c[nH]c5ccncc45)cs3)c2c1 ?
Solution: FALSE

Exercise: One more compound: COC(=O)/C=C1/SC(=Nc2ccc(C)cc2)N(CCc2c[nH]c3ccc(O)cc23)C1=O
Solution: FALSE

Exercise: Field entry: CC(=O)N1N=C(c2ccc(Nc3nc(Nc4ccc(Cl)cc4)nc(Nc4ccc(Cl)cc4)n3)cc2)CC1c1ccco1 (stereo not given)
Solution: FALSE

Exercise: Now consider COc1cc(-c2nc(SCC(C)C)nc(Nc3cccc4ccccc34)c2C#N)cc(OC)c1OC .
Solution: FALSE

Exercise: Next compound up: C#Cc1cccc(Nc2ncnc3ccc(-c4cncc(NS(C)(=O)=O)c4)cc23)c1
Solution: FALSE

Exercise: Field entry: CCCCCCCCn1ccc2cc(NC(=O)Cn3cc(CN4CCCCC4)nn3)ccc21
Solution: FALSE

Exercise: Record: CC1(C)CCC(S(=O)(=O)c2ccc3c(c2)/C(=N\O)c2cc(S(=O)(=O)N4CCC(O)(c5cccc(C(F)(F)F)c5)CC4)ccc2-3)CC1
Solution: TRUE

Exercise: // repeat for Cc1ccc(Cl)cc1Nc1nc(C(F)(F)F)ccc1C(=O)N/N=C/c1cccnc1 and report
Solution: FALSE

Exercise: Try the compound CCN(CC)CCCN1C(=O)c2c(c(C)c3c(oc4cc(O)ccc43)c2C)C1=O
Solution: TRUE

Exercise: And what about the compound O=[N+]([O-])/C(=C/C=C/c1ccccc1)c1ccccc1 ?
Solution: FALSE

Exercise: Let us now turn to O=C(OCc1ccc2c(Cl)cc(Cl)c(O)c2n1)n1cncn1
Solution: FALSE

Exercise: Note, next up: COC(C(=O)[C@@H](O)[C@@H](C)O)[C@@H]1Cc2cc3cc(O[C@H]4C[C@@H](O[C@H]5C[C@@H](O)[C@H](O)C(C)O5)[C@H](O)C(C)O4)cc(O)c3c(O)c2C(=O)[C@H]1O[C@H]1C[C@@H](O[C@H]2C[C@@H](O[C@H]3C[C@@H](OC)[C@H](O)C(C)O3)[C@@H](O)C(C)O2)[C@H](O)C(C)O1 (stereo not given in full)
Solution: FALSE

Exercise: Do the same for Cn1cc(-c2csc(-c3ccc(Cl)cc3)n2)c2cccnc21 please
Solution: TRUE

Exercise: For Cc1ccc2c3c(c(=O)[nH]c2c1)C1(C(C#N)=C(N)O3)c2cc(Br)ccc2-c2ccc(Br)cc21 then?
Solution: TRUE

Exercise: Continue with O=S(=O)(Nc1ccc(Cl)cc1)c1ccc(-c2cnc(C3CC3)o2)cc1
Solution: FALSE

Exercise: Same for COc1cc2c(c(OC)c1OC)-c1ccc(OC)c(=O)cc1[C@@H](NC(=O)CCl)CC2
Solution: FALSE

Exercise: Cc1ccc(/C=C2\CN(C(=O)OC(C)(C)C)C/C(=C\c3ccc(C)cc3)C2=O)cc1 , same question.
Solution: FALSE

Exercise: What about OCCNCCCOc1ccc2ncnc(Nc3ccc(Oc4cccc(C(F)(F)F)c4)c(Cl)c3)c2c1 ?
Solution: FALSE

Exercise: Now consider COc1cc(-c2cc(-c3ccc(N(C)C)cc3)nc(N3CCC(O)CC3)c2C#N)cc(OC)c1OC .
Solution: FALSE

Exercise: Similarly, O=C(COc1ccc(-c2nc3ccccc3[nH]2)cc1)N=Nc1c(O)[nH]c2ccc(Cl)cc12 ?
Solution: FALSE

Reference source: PubChem BioAssay (NCI)
